meta.source: patent US20070293656A1

Quick reference for % bound among some binders
molecular target: T1, human collagen type I (acid soluble, extracted from placenta, Sigma C7774) (human, UniProt P02452 162-1218; P08123 80-1119); assay: dried collagen assay
T1 construct: gelled and dried as a fibril film in the assay; also called dried human collagen; h-Collagen
T1 sequence (P02452 162-1218 limits assumed, chain 1 of 2): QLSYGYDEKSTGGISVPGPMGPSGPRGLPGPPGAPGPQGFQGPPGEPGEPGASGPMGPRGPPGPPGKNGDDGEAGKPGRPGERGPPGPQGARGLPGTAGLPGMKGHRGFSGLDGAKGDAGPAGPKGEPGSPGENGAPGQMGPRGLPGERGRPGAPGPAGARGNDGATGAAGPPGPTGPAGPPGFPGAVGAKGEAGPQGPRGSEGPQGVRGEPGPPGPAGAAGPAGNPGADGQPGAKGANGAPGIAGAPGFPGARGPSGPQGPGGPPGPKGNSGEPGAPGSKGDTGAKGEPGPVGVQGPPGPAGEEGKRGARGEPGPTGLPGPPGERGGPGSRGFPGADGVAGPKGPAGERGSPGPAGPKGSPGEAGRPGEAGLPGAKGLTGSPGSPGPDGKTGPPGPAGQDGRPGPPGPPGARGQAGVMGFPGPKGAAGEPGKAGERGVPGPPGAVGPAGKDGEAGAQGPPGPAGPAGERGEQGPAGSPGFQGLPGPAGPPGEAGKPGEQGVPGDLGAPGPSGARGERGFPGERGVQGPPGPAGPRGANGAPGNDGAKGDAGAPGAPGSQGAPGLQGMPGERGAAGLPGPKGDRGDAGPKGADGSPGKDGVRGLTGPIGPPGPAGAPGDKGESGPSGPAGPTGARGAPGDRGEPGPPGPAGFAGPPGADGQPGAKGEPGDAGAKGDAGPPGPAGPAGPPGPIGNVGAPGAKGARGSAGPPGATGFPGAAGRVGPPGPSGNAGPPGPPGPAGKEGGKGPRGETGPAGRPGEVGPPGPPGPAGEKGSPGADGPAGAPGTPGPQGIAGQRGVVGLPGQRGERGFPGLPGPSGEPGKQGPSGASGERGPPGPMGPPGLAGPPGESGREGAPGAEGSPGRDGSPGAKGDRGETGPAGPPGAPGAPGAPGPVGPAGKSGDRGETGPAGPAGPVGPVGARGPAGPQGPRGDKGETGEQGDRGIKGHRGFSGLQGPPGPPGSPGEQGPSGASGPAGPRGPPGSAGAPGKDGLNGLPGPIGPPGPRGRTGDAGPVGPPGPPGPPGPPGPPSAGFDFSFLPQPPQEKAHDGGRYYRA
T1 sequence (P08123 80-1119 limits assumed, chain 2 of 2): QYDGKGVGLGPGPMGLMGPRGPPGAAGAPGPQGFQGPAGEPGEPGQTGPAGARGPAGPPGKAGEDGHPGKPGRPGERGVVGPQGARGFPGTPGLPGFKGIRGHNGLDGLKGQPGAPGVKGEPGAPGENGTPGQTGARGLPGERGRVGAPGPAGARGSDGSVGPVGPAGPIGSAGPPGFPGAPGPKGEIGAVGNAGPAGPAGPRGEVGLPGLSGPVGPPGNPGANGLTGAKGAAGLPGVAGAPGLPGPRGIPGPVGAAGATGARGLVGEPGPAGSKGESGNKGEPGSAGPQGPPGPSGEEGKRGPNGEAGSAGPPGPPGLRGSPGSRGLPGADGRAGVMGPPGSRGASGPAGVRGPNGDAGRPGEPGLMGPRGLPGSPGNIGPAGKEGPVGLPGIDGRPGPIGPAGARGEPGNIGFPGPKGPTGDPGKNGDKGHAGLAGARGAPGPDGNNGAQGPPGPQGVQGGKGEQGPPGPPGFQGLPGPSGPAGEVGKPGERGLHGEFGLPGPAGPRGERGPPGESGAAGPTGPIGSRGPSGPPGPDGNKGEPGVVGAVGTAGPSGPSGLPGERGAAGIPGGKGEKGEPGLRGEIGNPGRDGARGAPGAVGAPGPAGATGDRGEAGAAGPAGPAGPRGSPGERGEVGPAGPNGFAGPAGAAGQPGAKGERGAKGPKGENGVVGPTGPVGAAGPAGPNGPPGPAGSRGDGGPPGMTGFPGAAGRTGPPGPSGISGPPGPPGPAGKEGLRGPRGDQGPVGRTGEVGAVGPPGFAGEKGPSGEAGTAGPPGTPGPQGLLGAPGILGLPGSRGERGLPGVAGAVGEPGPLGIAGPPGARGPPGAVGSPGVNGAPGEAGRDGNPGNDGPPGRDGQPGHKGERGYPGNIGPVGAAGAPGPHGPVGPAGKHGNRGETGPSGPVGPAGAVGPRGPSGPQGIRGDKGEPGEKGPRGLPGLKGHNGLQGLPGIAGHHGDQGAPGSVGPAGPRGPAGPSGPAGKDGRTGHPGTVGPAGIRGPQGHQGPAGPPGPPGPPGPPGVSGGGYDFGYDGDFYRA
Bridge positions count the residues as written; N and C are the ends. Ends that are not written are not given here.
// return numeric value only (unit: %, not printed)

// worked examples, % bound included
INSERT INTO assay_data (binder, value) VALUES
  ('WQLCSSRNDHVAYCFVS (disulfide 4-14 (inferred)) [SEQ ID NO: 96]', 17),
  ('QWFCEMDEYGKWNCGMM (disulfide 4-14 (inferred)) [SEQ ID NO: 81]', 3),
  ('HWSCDLAMDNEWFCSTK (disulfide 4-14 (inferred)) [SEQ ID NO: 84]', 3),
  ('SWYCDWDDRKGWMCGSD (disulfide 4-14 (inferred)) [SEQ ID NO: 86]', 2),
  ('NWYCTGTKSWECFWK (disulfide 4-12 (inferred)) [SEQ ID NO: 7]', 11),
  ('DWTCSGDEYTWHCNYE (disulfide 4-13 (inferred)) [SEQ ID NO: 17]', 78),
  ('AKKCWYNDGGHLRCRTL (disulfide 4-14 (inferred)) [SEQ ID NO: 99]', 3),
  ('NWKCWGVVKWECIWA (disulfide 4-12 (inferred)) [SEQ ID NO: 5]', 24);

Measured % bound, GWVCLQKGPKWVCDWD (disulfide 4-13 (inferred)) [SEQ ID NO: 46] : 23

Measured % bound, WTDCQWMDEQIWTCRWD (disulfide 4-14 (inferred)) [SEQ ID NO: 95] : 5

Measured % bound, HWQCGEKMSFWSCELV (disulfide 4-13 (inferred)) [SEQ ID NO: 69] : 3

Measured % bound, DWTCSGDEYTWYCNYE (disulfide 4-13 (inferred)) [SEQ ID NO: 18] : 78
